Source: patent US20250034267A1

Assayed system: T1, CD25 endogenously expressed on SUDHL-1 human lymphoma cell line and induced human Treg (iTreg) (human, UniProt P01589 22-272)
T1 sequence (looked up): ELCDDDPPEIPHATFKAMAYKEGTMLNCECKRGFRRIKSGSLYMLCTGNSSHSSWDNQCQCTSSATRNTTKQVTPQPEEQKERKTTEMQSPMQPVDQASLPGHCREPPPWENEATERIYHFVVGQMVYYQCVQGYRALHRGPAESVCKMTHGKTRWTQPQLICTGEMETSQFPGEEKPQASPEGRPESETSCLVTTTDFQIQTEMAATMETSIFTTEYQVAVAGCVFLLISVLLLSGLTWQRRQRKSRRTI
Experimental details: cell-based or functional assay
Observed property: EC50, SUDHL-1/NFAT CD16 ADCC reporter assay (ng/mL)
# value in ng/mL; strip the unit string

INSERT INTO assay_data (binder, result_value) VALUES
  ('IBIO-101-plant-afuc (SD-889825-PC-A; IBIO-101, c-105 plant Afucosylated) (antibody, human IgG1, kappa, V domains shown, Same antibody made in C105 deltaXT/FT N. benthamiana plants, glycans without fucose and xylose; also called RTX-003; hD11) VH: QVQLVQSGAEVKKPGASLKISCKGSGYTFTDYAMHWVRQAPGQGLEWIGVISTYSGDAIYAQKFQGRATMTVDTSTSTAYLELSSLRSEDTAVYYCARGVTFDYWGQGTTVTVSS VL: DIQMTQSPSSLSASVGDRVTITCRASQDISNYLEWYQQKPGKAPKLLVYNAKTLAEGVPSRFSGSGSGTDFTLTISSLQPEDFGTYYCQHHYDTPYTFGQGTKLEIKR', 8.9),
  ('IBIO-101-CHO-afuc (SD-889825-CG-A; IBIO-101, CHO cells Afucosylated) (antibody, human IgG1, kappa, V domains shown, Same antibody made in CHO cells, afucosylated glycans; also called RTX-003; hD11) VH: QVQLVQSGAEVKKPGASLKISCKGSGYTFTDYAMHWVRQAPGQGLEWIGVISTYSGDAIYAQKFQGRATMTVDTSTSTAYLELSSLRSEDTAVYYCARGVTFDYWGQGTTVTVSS VL: DIQMTQSPSSLSASVGDRVTITCRASQDISNYLEWYQQKPGKAPKLLVYNAKTLAEGVPSRFSGSGSGTDFTLTISSLQPEDFGTYYCQHHYDTPYTFGQGTKLEIKR', 7.2);

Alright, here's another binder for you.
For the binder IBIO-101-plant-WT (SD-889825-PW-A; IBIO-101, wild-type plant) (antibody, human IgG1, kappa, V domains shown, Same antibody made in wild-type Nicotiana benthamiana plants; also called RTX-003; hD11) VH: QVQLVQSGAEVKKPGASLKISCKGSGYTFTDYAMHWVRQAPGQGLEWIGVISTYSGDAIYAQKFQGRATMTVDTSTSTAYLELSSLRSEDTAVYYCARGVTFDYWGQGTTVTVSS VL: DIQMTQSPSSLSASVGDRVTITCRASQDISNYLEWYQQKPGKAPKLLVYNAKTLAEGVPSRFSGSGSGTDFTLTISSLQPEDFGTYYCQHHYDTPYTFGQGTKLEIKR , what EC50, SUDHL-1/NFAT CD16 ADCC reporter assay is on record?
32.5
